SUBJECT OF TEST: Alpha-2A adrenergic receptor (Homo sapiens)
Sequence (P08913 whole entry): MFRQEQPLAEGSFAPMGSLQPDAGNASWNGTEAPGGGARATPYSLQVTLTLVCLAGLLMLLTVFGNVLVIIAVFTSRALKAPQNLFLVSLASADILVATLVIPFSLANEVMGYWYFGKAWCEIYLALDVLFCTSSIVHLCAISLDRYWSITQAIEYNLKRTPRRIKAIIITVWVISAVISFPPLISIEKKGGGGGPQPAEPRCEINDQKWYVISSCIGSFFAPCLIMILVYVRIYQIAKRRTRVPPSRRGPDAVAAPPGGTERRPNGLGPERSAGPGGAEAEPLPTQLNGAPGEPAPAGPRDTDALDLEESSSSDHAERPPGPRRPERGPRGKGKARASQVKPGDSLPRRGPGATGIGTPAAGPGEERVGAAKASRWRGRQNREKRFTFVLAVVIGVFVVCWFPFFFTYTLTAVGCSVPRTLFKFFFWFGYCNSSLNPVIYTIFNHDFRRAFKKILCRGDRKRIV
Type: functional, cell-based
MEASUREMENT NAME: AC50

{"MOLECULE": "C[C@@H]1C[C@H]2[C@@H]3C[C@H](F)C4=CC(=O)C=C[C@]4(C)[C@@]3(F)[C@@H](O)C[C@]2(C)[C@@]1(OC(=O)c1ccco1)C(=O)SCF [FLUTICASONE FUROATE]", "AC50": "> 10 µM"}
{"MOLECULE": "CC1(C)S[C@@H]2[C@H](NC(=O)C(C(=O)O)c3ccccc3)C(=O)N2[C@H]1C(=O)O (some centres not stated) [CARBENICILLIN]", "AC50": "> 30 µM"}
{"MOLECULE": "CCOC(=O)[C@@H](N)Cc1ccc(-c2cc(O[C@H](c3ccc(Cl)cc3-n3ccc(C)n3)C(F)(F)F)nc(N)n2)cc1 [TELOTRISTAT ETHYL]", "AC50": "> 30 µM"}
{"MOLECULE": "CN(C)CCCN1c2ccccc2CCc2ccccc21 [IMIPRAMINE]", "AC50": "> 10 µM"}

Items follow; give AC50 for each.
1. Oc1cc(O)c(Cl)cn1
2. NC[C@H]1CC[C@H](C(=O)Oc2ccc(CCC(=O)O)cc2)CC1 [CETRAXATE]
3. COC(=O)[C@H]1[C@H]2C[C@@H]3c4[nH]c5cc(OC)ccc5c4CCN3C[C@H]2C[C@@H](OC(=O)c2cc(OC)c(OC)c(OC)c2)[C@@H]1OC [RESERPINE]

> 30 µM
> 30 µM
> 10 µM
